The listing below reports pIC50 for compounds tested on human 11β-HSD1 (Homo sapiens, UniProt P28845).
Sequence (P28845 whole entry): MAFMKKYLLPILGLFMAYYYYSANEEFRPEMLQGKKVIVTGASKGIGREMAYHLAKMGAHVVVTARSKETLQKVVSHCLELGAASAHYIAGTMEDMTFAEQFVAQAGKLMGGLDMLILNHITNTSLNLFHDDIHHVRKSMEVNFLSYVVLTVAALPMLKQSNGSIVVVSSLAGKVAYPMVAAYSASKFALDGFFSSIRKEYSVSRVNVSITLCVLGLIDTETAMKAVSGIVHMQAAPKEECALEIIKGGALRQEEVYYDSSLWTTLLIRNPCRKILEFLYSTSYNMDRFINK
pIC50: −log10 of the molar value.

Past entries and their recorded results:
INSERT INTO results (compound, endpoint, reported_result) VALUES
  ('C[C@H](N1CC[C@](CCO)(c2ccc(F)cc2)OC1=O)C(C)(C)C (single isomer, unassigned; isomer 1) [EXAMPLE 1 Isomer 1]', 'pIC50', '> 7.00'),
  ('CC(C)(C)N1CCC(CCCO)(c2ccc(F)cc2)OC1=O (single isomer, unassigned) [EXAMPLE 9 Isomer 2]', 'pIC50', '< 7.00');

Q: Find pIC50 (human 11β-HSD1 (Homo sapiens, UniProt P28845)) for the entry C=CCC1(c2ccccc2)CCN([C@@H](C)C(C)(C)O)C(=O)O1 (single isomer, unassigned) [EXAMPLE 12 Isomer 2]
Result: > 7.00

###

# inhibition at 0.1 µM per record follows
MEASURED_ON: human 11β-HSD1 (Homo sapiens, UniProt P28845)
Construct: expressed in transfected cells; host or cells: CHO cells (microsomes)
TEST_NAME: Inhibition of microsomal preparation of 11β-HSD1 (SPA, [3H]cortisone to [3H]cortisol)
Format: biochemical
TEST_CONTEXT: compound at 100 nM
API: value field is a number in %; no unit string.

# example entries with known answers
INSERT INTO assay_data (compound, measured_on, reported_result) VALUES
  ('C[C@H](N1CC[C@](CCCO)(c2ccc(F)cc2)NC1=O)C(C)(C)C', 'human 11β-HSD1 (Homo sapiens, UniProt P28845)', 97),
  ('C=CCC1(c2ccccc2)CCN([C@@H](C)C(C)(C)O)C(=O)O1 (single isomer, unassigned) [EXAMPLE 12 Isomer 1]', 'human 11β-HSD1 (Homo sapiens, UniProt P28845)', 47.2);

Q: Quick one: inhibition at 0.1 µM for C[C@H](N1CC[C@](CCCNS(C)(=O)=O)(c2ccc(F)cc2)OC1=O)C(C)(C)C ?
Result: 95.9

Q: Looking for the measured inhibition at 0.1 µM of C[C@H](N1CC[C@@](CCCO)(c2ccccc2)OC1=O)C(C)(C)C [EXAMPLE 3 Isomer 2] , can you help?
Result: 58.8

Q: Form field: reported inhibition at 0.1 µM of C[C@H](N1CC[C@](CCCO)(c2ccc(F)cc2)OC1=O)C(C)(C)C
Result: 98.6

###

MEASURED_ON: human 11β-HSD1 (Homo sapiens)
Construct: expressed in transfected cells; host or cells: CHO cells (microsomes)
TEST_NAME: Inhibition of microsomal preparation of 11β-HSD1 (SPA, [3H]cortisone to [3H]cortisol)
Format: biochemical
TEST_CONTEXT: compound at 100 nM
Attribute: inhibition at 0.1 µM
Give the value, in units of %, as a plain number.

Q: Param readout= inhibition at 0.1 µM; system= human 11β-HSD1 (Homo sapiens); entry= C[C@H](N1CC[C@](CCNS(C)(=O)=O)(c2ccc(F)cc2)OC1=O)C(C)(C)C ; returns value.
Result: 91

Q: Lab request: please report inhibition at 0.1 µM under test system human 11β-HSD1 (Homo sapiens) for C[C@H](N1CC[C@](CCC(N)=O)(c2ccc(F)cc2)OC1=O)C(C)(C)C
Result: 91.8

Q: Value wanted: inhibition at 0.1 µM (human 11β-HSD1 (Homo sapiens)) of entry C[C@H](N1CC[C@](CCCO)(c2ccccc2)OC1=O)C(C)(C)C [EXAMPLE 3 Isomer 1]
Result: 94

Q: Find inhibition at 0.1 µM (human 11β-HSD1 (Homo sapiens)) for the entry C[C@H](N1CC[C@](CCO)(c2ccc(F)cc2)NC1=O)C(C)(C)C
Result: 93.3

###

MEASURED_ON: human 11β-HSD1 (Homo sapiens, UniProt P28845)
Construct: expressed in transfected cells; host or cells: CHO cells (microsomes)
TEST_NAME: Inhibition of microsomal preparation of 11β-HSD1 (SPA, [3H]cortisone to [3H]cortisol)
Type: biochemical
TEST_CONTEXT: compound at 100 nM; 0.1 µM
Rule: Criterion met for Average % inhibition at 100 nM not less than 30%, Criterion not met for anything less.

INSERT INTO results (molecule, class) VALUES
  ('C[C@H](N1CCC(CCCO)(c2ccccc2)OC1=O)C(C)(C)O (single isomer, unassigned) [EXAMPLE 10 Isomer 2]', 'Criterion not met'),
  ('CC(C)(C)N1CCC(CCCO)(c2ccc(F)cc2)OC1=O (single isomer, unassigned) [EXAMPLE 9 Isomer 1]', 'Criterion met'),
  ('CC(C)(C)N1CCC(CCCO)(c2ccc(F)cc2)OC1=O (single isomer, unassigned) [EXAMPLE 9 Isomer 2]', 'Criterion not met'),
  ('C=CCC1(c2ccccc2)CCN([C@@H](C)C(C)(C)O)C(=O)O1 (single isomer, unassigned) [EXAMPLE 12 Isomer 2]', 'Criterion met');

Q: // inclusive: Average % inhibition at 100 nM at least 30%? input: C[C@H](N1CCC(CCCO)(c2ccccc2)OC1=O)C(C)(C)O (single isomer, unassigned) [EXAMPLE 10 Isomer 1]
Result: Criterion met

Q: Given CC(C)(C)N1CCC(CCCO)(c2ccccc2)OC1=O (single isomer, unassigned) [EXAMPLE 8 Isomer 1] , state whether its Average % inhibition at 100 nM is at least 30%.
Result: Criterion met

Q: Say whether CC(C)(C)N1CCC(CCCO)(c2ccccc2)OC1=O (single isomer, unassigned) [EXAMPLE 8 Isomer 2] shows Average % inhibition at 100 nM of 30% or more.
Result: Criterion not met

###

The molecules below have reported IC50 for human 11β-HSD1 (Homo sapiens, UniProt P28845).

Field: example entries. Status: answers known.
INSERT INTO measurements (molecule, endpoint, reported_result) VALUES
  ('C[C@H](N1CCC(CCCO)(c2ccccc2)OC1=O)C(C)(C)O (single isomer, unassigned) [EXAMPLE 10 Isomer 2]', 'IC50', '> 100 nM'),
  ('CC(C)(C)N1CCC(CCCO)(c2ccccc2)OC1=O (single isomer, unassigned) [EXAMPLE 8 Isomer 1]', 'IC50', '< 100 nM'),
  ('C[C@H](N1CC[C@](CCO)(c2ccc(F)cc2)NC1=O)C(C)(C)C', 'IC50', '< 100 nM'),
  ('C[C@H](N1CC[C@](CCC(N)=O)(c2ccc(F)cc2)OC1=O)C(C)(C)C', 'IC50', '< 100 nM'),
  ('C[C@H](N1CC[C@@](CCCO)(c2ccccc2)OC1=O)C(C)(C)C [EXAMPLE 3 Isomer 2]', 'IC50', '< 100 nM');

Q: What value of measured IC50 is listed for CC(C)(C)N1CCC(CCCO)(c2ccccc2)OC1=O (single isomer, unassigned) [EXAMPLE 8 Isomer 2] ?
Result: > 100 nM

Q: Please report the recorded IC50 for C[C@H](N1CC[C@@](CCO)(c2ccc(F)cc2)OC1=O)C(C)(C)C (single isomer, unassigned; isomer 2) [EXAMPLE 1 Isomer 2] .
Result: < 100 nM

Q: Look up IC50: CC(C)(C)N1CCC(CCCO)(c2ccc(F)cc2)OC1=O (single isomer, unassigned) [EXAMPLE 9 Isomer 1]
Result: < 100 nM

Q: Fill in the blank: the reported IC50 of C=CCC1(c2ccccc2)CCN([C@@H](C)C(C)(C)O)C(=O)O1 (single isomer, unassigned) [EXAMPLE 12 Isomer 1] is ____.
Result: > 100 nM

Q: Which IC50 is reported for this molecule? C[C@H](N1CCC(CCCO)(c2ccccc2)OC1=O)C(C)(C)O (single isomer, unassigned) [EXAMPLE 10 Isomer 1]
Result: < 100 nM

Q: Any idea what IC50 was measured for C[C@H](N1CC[C@](CCCO)(c2ccccc2)OC1=O)C(C)(C)C [EXAMPLE 3 Isomer 1] ?
Result: < 100 nM

Q: // query IC50 value for entry C[C@H](N1CC[C@](CCNS(C)(=O)=O)(c2ccc(F)cc2)OC1=O)C(C)(C)C
Result: < 100 nM

The reported measurements were obtained from patent US8440658B2.
